- TESTED TARGET: full length human PDGFR-beta on HEK293 cells (human, UniProt P09619 33-1106)
- Sequence (P09619 33-1106 limits assumed): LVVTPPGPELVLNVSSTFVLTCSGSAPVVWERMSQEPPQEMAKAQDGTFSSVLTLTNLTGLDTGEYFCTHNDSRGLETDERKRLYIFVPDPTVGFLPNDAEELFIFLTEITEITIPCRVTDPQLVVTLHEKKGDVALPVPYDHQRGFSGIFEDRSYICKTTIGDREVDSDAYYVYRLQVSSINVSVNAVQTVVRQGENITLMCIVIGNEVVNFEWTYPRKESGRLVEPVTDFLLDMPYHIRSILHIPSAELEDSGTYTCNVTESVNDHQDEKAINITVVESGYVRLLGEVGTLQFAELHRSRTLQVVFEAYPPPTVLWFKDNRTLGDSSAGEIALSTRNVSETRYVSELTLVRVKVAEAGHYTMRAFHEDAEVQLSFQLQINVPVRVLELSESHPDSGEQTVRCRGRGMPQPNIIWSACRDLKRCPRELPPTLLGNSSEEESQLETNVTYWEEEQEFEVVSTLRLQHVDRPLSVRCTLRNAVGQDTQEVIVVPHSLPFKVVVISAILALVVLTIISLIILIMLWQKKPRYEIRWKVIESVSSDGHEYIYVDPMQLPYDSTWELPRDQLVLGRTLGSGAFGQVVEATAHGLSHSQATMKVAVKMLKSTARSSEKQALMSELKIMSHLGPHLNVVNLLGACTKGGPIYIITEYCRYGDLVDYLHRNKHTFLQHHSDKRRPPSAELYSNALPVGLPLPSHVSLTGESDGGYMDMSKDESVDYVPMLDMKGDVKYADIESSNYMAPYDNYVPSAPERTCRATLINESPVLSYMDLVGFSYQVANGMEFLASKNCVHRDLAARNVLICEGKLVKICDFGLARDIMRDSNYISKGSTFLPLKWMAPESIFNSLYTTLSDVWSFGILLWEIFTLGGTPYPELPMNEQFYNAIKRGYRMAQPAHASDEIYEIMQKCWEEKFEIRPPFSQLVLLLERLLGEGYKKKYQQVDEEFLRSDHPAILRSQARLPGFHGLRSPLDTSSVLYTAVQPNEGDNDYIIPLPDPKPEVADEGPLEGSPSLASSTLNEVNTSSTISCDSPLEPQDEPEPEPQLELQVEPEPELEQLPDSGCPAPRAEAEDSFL
- ASSAY METHOD TEXT: cell-based or functional assay
Quick reference for IC50, blocking PDGF-DD (400 pM) activation, SRE-luciferase among some binders
Note: state the figure and append the unit.

Reference set (5 entries):
1) H4H3104S (antibody, human IgG4, V domains shown, human IgG4 Fc (H4H prefix)) VH: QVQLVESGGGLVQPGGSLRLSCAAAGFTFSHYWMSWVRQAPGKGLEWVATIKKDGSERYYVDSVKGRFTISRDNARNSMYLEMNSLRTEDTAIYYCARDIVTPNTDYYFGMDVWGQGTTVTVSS VL: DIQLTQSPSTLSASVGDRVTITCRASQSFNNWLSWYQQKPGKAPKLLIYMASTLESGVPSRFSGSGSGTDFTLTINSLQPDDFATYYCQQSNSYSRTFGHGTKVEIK    3.3e-10 M
2) H4H3096S (antibody, human IgG4, V domains shown, human IgG4 Fc (H4H prefix)) VH: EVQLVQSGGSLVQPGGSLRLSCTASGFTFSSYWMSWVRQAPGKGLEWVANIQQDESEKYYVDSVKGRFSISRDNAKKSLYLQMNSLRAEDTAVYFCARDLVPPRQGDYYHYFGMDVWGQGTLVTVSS VL: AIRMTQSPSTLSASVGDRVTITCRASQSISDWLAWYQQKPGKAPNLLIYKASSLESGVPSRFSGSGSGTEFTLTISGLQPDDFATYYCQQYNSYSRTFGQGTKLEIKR    5.8e-10 M
3) H4H3095S (antibody, human IgG4, V domains shown, human IgG4 Fc (H4H prefix)) VH: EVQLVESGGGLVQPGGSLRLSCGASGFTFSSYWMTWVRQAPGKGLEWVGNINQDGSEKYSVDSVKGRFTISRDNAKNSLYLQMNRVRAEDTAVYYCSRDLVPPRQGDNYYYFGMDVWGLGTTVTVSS VL: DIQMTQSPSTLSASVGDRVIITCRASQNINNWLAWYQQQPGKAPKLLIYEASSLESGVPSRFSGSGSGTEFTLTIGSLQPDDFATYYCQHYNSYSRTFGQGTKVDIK    8.2e-10 M
4) H1M3361N (antibody, mouse IgG1, V domains shown, mouse IgG1 Fc (H1M prefix)) VH: EVQLVESGGGLVQPGGSLRLSCAASGFTFSSYWMTWVRQAPGKGLEWVANIRQDGSDKYYVDSVKGRFTISRDNAKNSLFLQMNSLRAEDTAVYYCARTNGGTYGYNHYYYGMDVWGQGTTVTVSS VL: DIQMTQSPSSLSASVGDRVTITCRASQGIRNDLGWYQLKPGKAPKRLIFAASSLQSGVPSRFSGSGSGTEFTLTISSLQPEDFATYYCLQHNSYPWTFGQGTKVEIK    8.4e-11 M
5) H4H3103S (antibody, human IgG4, V domains shown, human IgG4 Fc (H4H prefix)) VH: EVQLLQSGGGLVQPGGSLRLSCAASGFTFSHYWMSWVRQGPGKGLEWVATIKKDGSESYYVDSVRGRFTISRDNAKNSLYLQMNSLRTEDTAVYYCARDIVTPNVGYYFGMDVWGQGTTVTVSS VL: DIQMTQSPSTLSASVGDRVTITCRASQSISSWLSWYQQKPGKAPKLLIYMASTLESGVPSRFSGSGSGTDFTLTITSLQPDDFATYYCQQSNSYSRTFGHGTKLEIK    2.6e-10 M

Ask: May I ask what IC50, blocking PDGF-DD (400 pM) activation, SRE-luciferase has been recorded for H4H3098S (antibody, human IgG4, V domains shown, human IgG4 Fc (H4H prefix)) VH: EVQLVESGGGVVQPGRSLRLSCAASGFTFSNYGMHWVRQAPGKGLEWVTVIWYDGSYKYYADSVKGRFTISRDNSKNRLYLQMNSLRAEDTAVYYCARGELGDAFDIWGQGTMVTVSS VL: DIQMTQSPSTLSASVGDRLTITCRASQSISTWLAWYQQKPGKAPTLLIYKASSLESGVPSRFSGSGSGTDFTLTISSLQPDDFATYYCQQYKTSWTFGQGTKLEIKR ?
Reply: 1.1e-09 M

Ask: And the next one, H4H3102S (antibody, human IgG4, V domains shown, human IgG4 Fc (H4H prefix)) VH: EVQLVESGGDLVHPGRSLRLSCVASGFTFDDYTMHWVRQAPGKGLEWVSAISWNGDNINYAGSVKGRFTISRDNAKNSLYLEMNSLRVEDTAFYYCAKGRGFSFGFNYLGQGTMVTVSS VL: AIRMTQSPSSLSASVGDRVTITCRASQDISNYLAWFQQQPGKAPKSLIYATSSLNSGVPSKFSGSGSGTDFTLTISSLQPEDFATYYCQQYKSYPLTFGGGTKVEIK ?
Reply: 4.4e-09 M

Ask: And the next one, H4H3105S (antibody, human IgG4, V domains shown, human IgG4 Fc (H4H prefix)) VH: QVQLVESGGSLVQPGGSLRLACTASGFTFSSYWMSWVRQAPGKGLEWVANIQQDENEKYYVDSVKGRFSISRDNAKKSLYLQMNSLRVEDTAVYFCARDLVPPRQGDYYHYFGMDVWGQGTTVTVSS VL: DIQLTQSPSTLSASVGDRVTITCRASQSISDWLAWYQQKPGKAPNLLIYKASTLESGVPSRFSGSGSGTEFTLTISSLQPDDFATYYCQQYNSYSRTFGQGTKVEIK ?
Reply: 5.1e-10 M

Ask: And the next one, H2M3373N (antibody, V domains shown, mouse Fc (H2M prefix; isotype not spelled out)) VH: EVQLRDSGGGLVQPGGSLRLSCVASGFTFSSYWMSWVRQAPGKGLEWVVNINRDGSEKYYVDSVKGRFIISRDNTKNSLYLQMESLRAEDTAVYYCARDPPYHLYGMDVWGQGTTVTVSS VL: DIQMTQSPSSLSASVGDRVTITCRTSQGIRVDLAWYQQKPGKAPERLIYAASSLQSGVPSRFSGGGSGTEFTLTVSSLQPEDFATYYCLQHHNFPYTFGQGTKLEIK ?
Reply: 9.2e-11 M

Ask: And the next one, H4H3106S (antibody, human IgG4, V domains shown, human IgG4 Fc (H4H prefix)) VH: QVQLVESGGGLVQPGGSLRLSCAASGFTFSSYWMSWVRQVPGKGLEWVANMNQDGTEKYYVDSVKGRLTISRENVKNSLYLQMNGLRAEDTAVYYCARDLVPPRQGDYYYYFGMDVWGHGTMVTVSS VL: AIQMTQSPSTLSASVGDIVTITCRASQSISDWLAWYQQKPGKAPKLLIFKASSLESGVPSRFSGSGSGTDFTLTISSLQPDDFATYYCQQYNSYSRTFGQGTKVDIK ?
Reply: 5.2e-10 M

Ask: And the next one, H4H3094P (antibody, human IgG4, V domains shown, also called H4H3394P) VH: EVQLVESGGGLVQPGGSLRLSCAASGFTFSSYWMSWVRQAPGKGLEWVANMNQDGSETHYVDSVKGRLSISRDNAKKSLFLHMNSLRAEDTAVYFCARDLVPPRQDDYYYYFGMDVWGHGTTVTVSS VL: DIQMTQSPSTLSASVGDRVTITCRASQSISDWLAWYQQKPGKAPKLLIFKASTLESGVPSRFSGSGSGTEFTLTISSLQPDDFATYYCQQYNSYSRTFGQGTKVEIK ?
Reply: 3.9e-10 M

Measured values drawn from patent US20170210813A1 for this set.
